- Assay summary: in vitro
- Assay context: human, hela cells, % viability
Below, each entry is listed with its recorded viability at 28.5 h, 10 µM.
Please reply with the bare figure in % and do not write the unit itself.

response.value for Cc1cc2ccccc2n2c(=O)n(CC(=O)N(C(C)C)C(C)C)nc12 [CBK283885] (field: viability at 28.5 h, 10 µM) = 87.1

So, O=C(Cc1ccc(Cl)c(Cl)c1)N1CCCC2(CCN(Cc3ccccc3)C2)C1 (stereo not drawn) [CBK136872] ? Its viability at 28.5 h, 10 µM was 91.9

Lab book: viability at 28.5 h, 10 µM of O=C(N[C@H]1CCN2C(=O)N(c3cccc4nsnc34)C(=O)[C@@H]2C1)c1cccs1 [CBK289543] noted as 87
